# System: E coli carrying specific resistance determinants
# MEASUREMENT PROTOCOL: MIC by broth microdilution, E coli carrying specific resistance determinants
# Format: cell-based
# MEASUREMENT CONDITIONS: engineered strain AG037 APH(3′)-III; Table 2 (Example 4)
METRIC: MIC AG037 E. coli APH(3′)-III (µg/mL)
The response must be a number in µg/mL with no trailing unit.

For record NC[C@@H]1O[C@H](O[C@H]2[C@@H](O)[C@H](O[C@@H]3[C@@H](O)[C@H](N)C[C@H](N)[C@H]3O[C@H]3O[C@H](CN)[C@@H](O)C[C@H]3N)O[C@@H]2CO)[C@H](N)[C@@H](O)[C@@H]1O [Compound 140] the listed MIC AG037 E. coli APH(3′)-III is 32

Turning now to a further record.
For record CCC[C@@H]1C(CO)O[C@H](O[C@@H]2C(N)C[C@@H](NC(=O)[C@@H](O)CCN)C(O)[C@H]2O[C@@H]2O[C@H](CO)[C@H](O[C@H]3C[C@@H](CN)[C@@H](O)C(O)C3N)C2O)[C@@H](N)C1O (some centres unmarked) [Compound 187] the listed MIC AG037 E. coli APH(3′)-III is 8
